VALUE KIND: melting point

Check out these entries, answers already filled in.
CC(C)C[C@H](NC(=O)OCc1ccccc1)C(=O)NC(=CNCc1ccccc1)C(N)=O [Example 5]
115 to 120 °C
CC(C)C[C@H](NC(=O)OCc1ccccc1)C(=O)NC(=CNCCO)C(N)=O [Example 7]
89 to 92 °C
CC(=O)N/C=C(/NC(=O)[C@H](CC1CCCCC1)NC(=O)OCc1ccccc1)C(N)=O [Example 19a]
140 to 142 °C

Q. Value lookup for melting point; key = CC(C)C[C@H](NC(=O)OCc1ccccc1)C(=O)N/C(=C\N1CCC(NC(=O)OC(C)(C)C)C1)C(N)=O (stereo partly drawn) [Example 18]
A. 140 to 142 °C

Q. What about this molecule? NC=C(NC(=O)[C@H](CC1CCCCC1)NC(=O)OCc1ccccc1)C(N)=O [Example 2]
A. 80 to 85 °C

Q. What about this molecule? CC(C)C[C@H](NC(=O)OCc1ccccc1)C(=O)N/C(=C\N1CCN(C)CC1)C(N)=O [Example 17]
A. 93.5 to 95 °C

Q. What about this molecule? CC(C)C[C@H](NC(=O)OCc1ccccc1)C(=O)NC(C(N)=O)C(O)O (stereo partly drawn) [Example 11]
A. 86 to 90 °C

Q. What about this molecule? CC(C)C[C@H](NC(=O)OCc1ccccc1)C(=O)NC(=CN)C(N)=O [Example 1]
A. 80 to 90 °C

Q. What about this molecule? CC(C)C[C@H](NC(=O)OCc1ccccc1)C(=O)N/C(=C/O)C(N)=O [Example 15]
A. 105 to 115 °C

Q. What about this molecule? CC(=O)N/C=C(/NC(=O)[C@H](CC(C)C)NC(=O)OCc1ccccc1)C(N)=O [Example 10a]
A. 73 to 76 °C

Q. What about this molecule? CC(C)C[C@H](NC(=O)OCc1ccccc1)C(=O)N/C(=C\N1CCCCC1)C(N)=O [Example 9]
A. 99 to 103 °C

Q. What about this molecule? NC=C(NC(=O)[C@H](Cc1ccccc1)NC(=O)CCc1ccccc1)C(N)=O [Example 4]
A. 75 to 80 °C

The origin of these recorded values is patent US6635621B1.
